Test system: soybean
EXPERIMENT_DESCRIPTION: Foliage treatment test for upland field (Test Example 3): phytotoxicity to soybean
Assay type: in vivo
TEST_CONTEXT: dose 2.5 g ai/a; foliage treatment at 1.0-2.0 leaf stage of southern crabgrass; examined after 3 weeks
For each of the compounds below, state its Phytotoxicity soybean.
One number for each entry.

Example cases with answers are listed next.
COCC(=Cc1cccc(C(F)(F)F)c1)c1nc2cc(Br)ccc2o1    1
COCC(=Cc1cccc(C(F)(F)F)c1)c1nc2cc(OC(F)(F)F)ccc2o1    1
CCSCC(=Cc1cccc(C(F)(F)F)c1)c1nc2cc(C(F)(F)F)ccc2o1    0
COCC(=Cc1ccc(F)c(C(F)(F)F)c1)c1nc2cc(F)c(F)cc2o1    1

State the recorded Phytotoxicity soybean for every item in the following list.
1. COC/C(=C\c1cccc(C(F)(F)F)c1)c1nc2cc(Cl)ccc2o1
2. FC(F)(F)COC/C(=C\c1cccc(C(F)(F)F)c1)c1nc2cc(C(F)(F)F)ccc2o1
3. COCC(=Cc1cccc(C(F)(F)F)c1)c1nc2cc(C(F)(F)F)ccc2o1
4. CCOCC(=Cc1cccc(C(F)(F)F)c1)c1nc2cc(C(F)(F)F)ccc2o1
5. COCC(=Cc1cccc(C(F)(F)F)c1)c1nc2cc(C(C)(C)C)ccc2o1

Solution:
[1, 2, 1, 2, 0]

State the recorded Phytotoxicity soybean for every item in the following list.
1. FC(F)C(F)(F)COCC(=Cc1cccc(C(F)(F)F)c1)c1nc2cc(C(F)(F)F)ccc2o1
2. CCOC/C(=C\c1cccc(C(F)(F)F)c1)c1nc2cc(Cl)ccc2o1
3. COCC(=Cc1cccc(C(F)(F)F)c1)c1nc2cc(C#N)c(F)cc2o1
4. CSCC(=Cc1cccc(C(F)(F)F)c1)c1nc2cc(C(F)(F)F)ccc2o1
5. COCC(=Cc1ccc(Cl)c(C(F)(F)F)c1)c1nc2cc(Cl)ccc2o1

Solution:
1
2
0
1
0

---

System: rice plant
EXPERIMENT_DESCRIPTION: Weed control test for paddy field (Test Example 1): phytotoxicity to rice plant
Format: in vivo
TEST_CONTEXT: dose 5 g ai/a; paddy pots, treated at 1.0 leaf stage of barnyard grass; examined after 3 weeks
ENDPOINT_NAME: Phytotoxicity Rice plant
Numbers only.

COCC(=Cc1ccc(F)c(C(F)(F)F)c1)c1nc2cc(F)c(F)cc2o1    0

State the recorded Phytotoxicity Rice plant for every item in the following list.
1. COCC(=Cc1cccc(C(F)(F)F)c1)c1nc2cc(Br)ccc2o1
2. FC(F)(F)COC/C(=C\c1cccc(C(F)(F)F)c1)c1nc2cc(C(F)(F)F)ccc2o1
3. CCOCC(=Cc1cccc(C(F)(F)F)c1)c1nc2cc(F)cc(F)c2o1
4. CCOC/C(=C\c1cccc(C(F)(F)F)c1)c1nc2cc(Cl)ccc2o1
5. CCOCC(=Cc1cccc(C(F)(F)F)c1)c1nc2cc(C(F)(F)F)ccc2o1
6. COCC(=Cc1ccc(Cl)c(C(F)(F)F)c1)c1nc2cc(Cl)ccc2o1

Solution:
1: 0; 2: 0; 3: 1; 4: 1; 5: 1; 6: 0

---

Test system: soybean
EXPERIMENT_DESCRIPTION: Soil treatment test for upland field (Test Example 2): phytotoxicity to soybean
Type: in vivo
TEST_CONTEXT: dose 5 g ai/a; soil treatment before germination; examined after 3 weeks
Source text: Evaluation of phytotoxicity is shown in the following six grades, as compared with the condition of untreated control: • 0: normal growth • 1: little damaged • 2: low damaged • 3: medium damaged • 4: serious damaged • 5: complete killed. […]
ENDPOINT_NAME: Phytotoxicity soybean
Give bare numbers.

Example cases with answers are listed next.
CSCC(=Cc1cccc(C(F)(F)F)c1)c1nc2cc(Cl)ccc2o1    0
CSCC(=Cc1cccc(C(F)(F)F)c1)c1nc2cc(C(F)(F)F)ccc2o1    0
COC/C(=C\c1cccc(C(F)(F)F)c1)c1nc2cc(Cl)ccc2o1    0
COCC(=Cc1ccc(F)c(C(F)(F)F)c1)c1nc2cc(F)c(F)cc2o1    0
COCC(=Cc1cccc(C(F)(F)F)c1)c1nc2cc(Br)ccc2o1    1

State the recorded Phytotoxicity soybean for every item in the following list.
1. FC(F)(F)COC/C(=C\c1cccc(C(F)(F)F)c1)c1nc2cc(C(F)(F)F)ccc2o1
2. CCOCC(=Cc1cccc(C(F)(F)F)c1)c1nc2cc(F)c(C(F)(F)F)cc2o1
3. COCC(=Cc1cccc(C(F)(F)F)c1)c1nc2cc(C(F)(F)F)ccc2o1

Solution:
[0, 0, 1]
